Item-by-item account of IC50
- targetOfAssay: CDK6/cyclin D1 (Homo sapiens)
- experiment: Enzyme activity assay CDK6/cyclin D1 (Lance Ultra)
- studyConditions: 0.8 nM CDK6/cyclin D1, 250 μM ATP, 180 minutes
Include the unit right after the number.

CC(=O)c1c(C)c2cnc(Nc3cnc(N4CCN[C@@H](C)C4)cn3)cc2n(C2CCCC2)c1=O: 3.4 nM

Answer with reported IC50 of CC(=O)c1c(C)c2cnc(Nc3cnc(N4CCN(C(C)C)CC4)cn3)cc2n(C2CCCC2)c1=O
2.9 nM

Answer with reported IC50 of CC(=O)c1c(C)c2cnc(Nc3cnc(N4CCN(C)C(C)(C)C4)cn3)cc2n(C2CCCC2)c1=O
2.4 nM

* * *

Item-by-item account of pIC50
- targetOfAssay: CDK6/cyclin D1 (Homo sapiens, UniProt Q00534)
- Sequence (Q00534 whole entry): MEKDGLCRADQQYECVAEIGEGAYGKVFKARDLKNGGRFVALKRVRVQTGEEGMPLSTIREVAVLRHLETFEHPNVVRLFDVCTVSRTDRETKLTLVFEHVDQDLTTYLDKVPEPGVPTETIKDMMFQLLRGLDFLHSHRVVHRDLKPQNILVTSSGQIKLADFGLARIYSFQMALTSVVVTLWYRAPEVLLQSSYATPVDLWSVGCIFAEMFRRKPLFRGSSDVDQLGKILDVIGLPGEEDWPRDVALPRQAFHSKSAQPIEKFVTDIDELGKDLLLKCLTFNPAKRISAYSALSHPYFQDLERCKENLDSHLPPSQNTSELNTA
- Sequence (P24385 whole entry partner): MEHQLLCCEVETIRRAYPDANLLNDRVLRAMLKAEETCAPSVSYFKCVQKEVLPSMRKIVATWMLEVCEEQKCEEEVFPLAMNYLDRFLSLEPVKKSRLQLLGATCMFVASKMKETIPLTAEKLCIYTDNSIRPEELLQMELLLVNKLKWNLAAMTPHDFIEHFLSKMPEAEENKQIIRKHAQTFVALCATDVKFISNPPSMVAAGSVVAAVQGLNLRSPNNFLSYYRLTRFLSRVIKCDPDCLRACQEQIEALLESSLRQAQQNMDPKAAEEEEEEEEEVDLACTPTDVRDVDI
- experiment: Enzyme activity assay CDK6/cyclin D1 (Lance Ultra)
- studyConditions: 0.8 nM CDK6/cyclin D1, 250 μM ATP, 180 minutes
Formally, pIC50 is defined as -log10 of the concentration c, with c in mol/L.

Answer with reported pIC50 of CC(=O)c1c(C)c2cnc(Nc3cnc(N4CCN(CCO)CC4)cn3)cc2n(C2CCCC2)c1=O [Example 33]
8.33

Answer with reported pIC50 of CC(=O)c1c(C)c2cnc(Nc3cnc(N4CCN(CCN)CC4)cn3)cc2n(C2CCCC2)c1=O [Example 35]
8.53

Answer with reported pIC50 of CC(=O)c1c(C)c2cnc(Nc3cnc(N4CC5CCC(C4)N5C)cn3)cc2n(C2CCCC2)c1=O [Example 19]
8.43

Answer with reported pIC50 of CC(=O)c1c(C)c2cnc(Nc3cnc(N4CCN(C(C)C)[C@@H](C)C4)cn3)cc2n(C2CCCC2)c1=O [Example 11]
8.51

Answer with reported pIC50 of CC(=O)c1c(C)c2cnc(Nc3cnc(N4CCN(C(C)C)C(C)(C)C4)cn3)cc2n(C2CCCC2)c1=O [Example 15]
8.51

Answer with reported pIC50 of CC(=O)c1c(C)c2cnc(Nc3cnc(N4CCN(CCN(C)C)CC4)cn3)cc2n(C2CCCC2)c1=O [Example 34]
8.44

Answer with reported pIC50 of CC(=O)c1c(C)c2cnc(Nc3cnc(C4CCNCC4)cn3)cc2n(C2CCCC2)c1=O [Example 28]
8.46

* * *

Item-by-item account of pIC50
- Test system: NCI-H358 cells
- experiment: Cell viability assay NCI-H358 (CellTiter-Glo)
- Type: cell-based
- studyConditions: Homo sapiens, 168 h; NCI-H358, incubated for 7 days
Formally, pIC50 is defined as -log10 of the concentration c, with c in mol/L.

Below, each entry is followed by its recorded pIC50 result.
CC(=O)c1c(C)c2cnc(Nc3cnc(N4CCN(CCN(C)C)CC4)cn3)cc2n(C2CCCC2)c1=O [Example 34]: 6.75
CC(=O)c1c(C)c2cnc(Nc3cnc(N4CCN(C(C)C)[C@@H](C)C4)cn3)cc2n(C2CCCC2)c1=O [Example 11]: 6.56
CC(=O)c1c(C)c2cnc(Nc3cnc(N4CCN(CCN)CC4)cn3)cc2n(C2CCCC2)c1=O [Example 35]: 6.72

Answer with reported pIC50 of CC(=O)c1c(C)c2cnc(Nc3cnc(N4CCN(C(C)C)CC4)cn3)cc2n(C2CCCC2)c1=O [Example 3]
6.75

Answer with reported pIC50 of CC(=O)c1c(C)c2cnc(Nc3cnc(N4CCN(C)C(C)(C)C4)cn3)cc2n(C2CCCC2)c1=O [Example 14]
6.71

Answer with reported pIC50 of CC(=O)c1c(C)c2cnc(Nc3cnc(N4CCN(CCO)CC4)cn3)cc2n(C2CCCC2)c1=O [Example 33]
6.82

Answer with reported pIC50 of CC(=O)c1c(C)c2cnc(Nc3cnc(C4CCNCC4)cn3)cc2n(C2CCCC2)c1=O [Example 28]
6.53

* * *

Item-by-item account of solubility kinetic at 24 h
- experiment: physchem
- studyConditions: phosphate buffer, pH 7.4, aqueous buffer, kinetic from dmso stock
Supply the numeric figure in µM, leaving out any unit text.

Below, each entry is followed by its recorded solubility kinetic at 24 h result.
CC(=O)c1c(C)c2cnc(Nc3cnc(N4CCN(C(C)C)CC4)cn3)cc2n(C2CCCC2)c1=O: 171
CC(=O)c1c(C)c2cnc(Nc3cnc(N4CCN(CCN(C)C)CC4)cn3)cc2n(C2CCCC2)c1=O: 194

// below: solubility kinetic at 24 h requested for another compound
Answer with reported solubility kinetic at 24 h of NC(=O)N1c2ccccc2C=Cc2ccccc21 [Carbamazepine, reference compound]
180

* * *

- experiment: Two-way permeability evaluation assay of Caco-2 cells
- studyConditions: human, Caco-2, pH 7.4
Item-by-item account of Papp B→A at 2 h, 2 μM
Supply the numeric figure in ×10⁻⁶ cm/s, leaving out any unit text.

CC(=O)c1c(C)c2cnc(Nc3cnc(N4CCN(CCN(C)C)CC4)cn3)cc2n(C2CCCC2)c1=O [Example 34]: 16

// below: Papp B→A at 2 h, 2 μM requested for another molecule
Answer with reported Papp B→A at 2 h, 2 μM of CC(=O)c1c(C)c2cnc(Nc3cnc(N4CCN(C(C)C)CC4)cn3)cc2n(C2CCCC2)c1=O [Example 3]
12.4

* * *

Item-by-item account of half-life at 1 μM
- experiment: Metabolic stability in human liver microsomes
- Type: in vitro ADME
- studyConditions: 0.5 mg/mL protein, read-out: Human T1/2
Supply the numeric figure in min, leaving out any unit text.

CC(=O)c1c(C)c2cnc(Nc3ccc(N4CCNCC4)cn3)nc2n(C2CCCC2)c1=O: 44.7
CCN1CCN(Cc2ccc(Nc3ncc(F)c(-c4cc(F)c5nc(C)n(C(C)C)c5c4)n3)nc2)CC1: 2.69

// below: half-life at 1 μM requested for another compound
Answer with reported half-life at 1 μM of CC(=O)c1c(C)c2cnc(Nc3cnc(N4CCN(CCN(C)C)CC4)cn3)cc2n(C2CCCC2)c1=O
43.1

* * *

- targetOfAssay: CDK4/cyclin D1 (Homo sapiens, UniProt P11802)
- Sequence (P11802 whole entry): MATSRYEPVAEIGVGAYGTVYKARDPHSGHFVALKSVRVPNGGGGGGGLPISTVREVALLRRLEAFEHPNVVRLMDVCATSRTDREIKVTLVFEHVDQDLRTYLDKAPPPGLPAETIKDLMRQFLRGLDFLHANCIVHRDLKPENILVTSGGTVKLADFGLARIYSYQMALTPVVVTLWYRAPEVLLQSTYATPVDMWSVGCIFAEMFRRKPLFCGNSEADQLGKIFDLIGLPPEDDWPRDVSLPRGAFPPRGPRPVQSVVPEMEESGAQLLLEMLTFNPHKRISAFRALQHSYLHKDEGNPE
- Sequence (P24385 whole entry partner): as the sequence (P24385 whole entry partner) above
- experiment: Enzyme activity assay CDK4/cyclin D1 (Lance Ultra)
- studyConditions: 0.3 nM CDK4/cyclin D1, 350 μM ATP, 180 minutes
measuredAttribute: pIC50
Formally, pIC50 is defined as -log10 of the concentration c, with c in mol/L.

Below, each entry is followed by its recorded pIC50 result.
CC(=O)c1c(C)c2cnc(Nc3cnc(N4CCN(C(C)C)C(C)(C)C4)cn3)cc2n(C2CCCC2)c1=O: 8.24
CC(=O)c1c(C)c2cnc(Nc3cnc(N4CCN(CCO)CC4)cn3)cc2n(C2CCCC2)c1=O: 8.06
CC(=O)c1c(C)c2cnc(Nc3cnc(N4CCN(C(C)C)[C@@H](C)C4)cn3)cc2n(C2CCCC2)c1=O: 8.25
CC(=O)c1c(C)c2cnc(Nc3cnc(N4CCN(C(C)C)CC4)cn3)cc2n(C2CCCC2)c1=O: 8.21

Answer with reported pIC50 of CC(=O)c1c(C)c2cnc(Nc3cnc(N4CCN(CCN)CC4)cn3)cc2n(C2CCCC2)c1=O
8.30

Answer with reported pIC50 of CC(=O)c1c(C)c2cnc(Nc3cnc(N4CCN(C)C(C)(C)C4)cn3)cc2n(C2CCCC2)c1=O
8.15

Answer with reported pIC50 of CC(=O)c1c(C)c2cnc(Nc3cnc(N4CCN[C@@H](C)C4)cn3)cc2n(C2CCCC2)c1=O
8.04

Answer with reported pIC50 of CC(=O)c1c(C)c2cnc(Nc3cnc(C4CCNCC4)cn3)cc2n(C2CCCC2)c1=O
8.08

Answer with reported pIC50 of CC(=O)c1c(C)c2cnc(Nc3cnc(N4CCN(CCN(C)C)CC4)cn3)cc2n(C2CCCC2)c1=O
8.13

Answer with reported pIC50 of CC(=O)c1c(C)c2cnc(Nc3cnc(N4CC5CCC(C4)N5C)cn3)cc2n(C2CCCC2)c1=O
8.15

* * *

Item-by-item account of half-life at 1 μM
- experiment: Metabolic stability in mouse liver microsomes
- Format: in vitro ADME
- studyConditions: 0.5 mg/mL protein, read-out: Mice T1/2
Supply the numeric figure in min, leaving out any unit text.

CC(=O)c1c(C)c2cnc(Nc3ccc(N4CCNCC4)cn3)nc2n(C2CCCC2)c1=O: 53.3
CCN1CCN(Cc2ccc(Nc3ncc(F)c(-c4cc(F)c5nc(C)n(C(C)C)c5c4)n3)nc2)CC1: 2.36

// below: half-life at 1 μM requested for another compound
Answer with reported half-life at 1 μM of CC(=O)c1c(C)c2cnc(Nc3cnc(N4CCN(CCN(C)C)CC4)cn3)cc2n(C2CCCC2)c1=O
40.2

* * *

Item-by-item account of pIC50
- Test system: NCI-H358 cells
- experiment: Cell viability assay NCI-H358 (CellTiter-Glo)
- Format: cell-based
- studyConditions: Homo sapiens, 168 h; NCI-H358, incubated for 7 days
Formally, pIC50 is defined as -log10 of the concentration c, with c in mol/L.

Below, each entry is followed by its recorded pIC50 result.
CC(=O)c1c(C)c2cnc(Nc3cnc(N4CCN(C(C)C)C(C)(C)C4)cn3)cc2n(C2CCCC2)c1=O: 6.58
CC(=O)c1c(C)c2cnc(Nc3cnc(N4CCN[C@@H](C)C4)cn3)cc2n(C2CCCC2)c1=O: 6.71
CC(=O)c1c(C)c2cnc(Nc3cnc(N4CC5CCC(C4)N5C)cn3)cc2n(C2CCCC2)c1=O: 6.67

// below: pIC50 requested for another molecule
State pIC50 (NCI-H358 cells) of CC(=O)c1c(C)c2cnc(Nc3ccc(N4CCNCC4)cn3)nc2n(C2CCCC2)c1=O .
6.50
